- procedure_details: in vitro
- measurement_setup: human, hela cells, % viability
readout_type: viability at 28.5 h, 10 µM (%)

[[record]]
compound = "CC(C)C(=O)N1CCC(n2nc(C3CC3)ccc2=O)CC1"
readout_value = 104

[[record]]
compound = "COc1ccc(N2C(=O)c3ccc(C(=O)Nc4ccccc4C(=O)O)cc3C2=O)cc1O"
readout_value = 97.8

[[record]]
compound = "Clc1ccc(Nc2cncc(-c3cccnc3)n2)cc1"
readout_value = 105

[[record]]
compound = "COCc1cc(C[C@@H]2C[C@H](NS(C)(=O)=O)C2(C)C)no1"
readout_value = 92.5

[[record]]
compound = "CCn1ncc(S(=O)(=O)N2CCCC(c3cccc(Cc4cccc(C)c4)n3)C2)c1C (centres unmarked)"
readout_value = 97.7

[[record]]
compound = "CCOC(=O)Nc1ccc2c(c1)N(C(=O)CCN1CCOCC1)c1ccccc1CC2 [CBK261291C]"
readout_value = 103

[[record]]
compound = "COc1ccc(OC)c(C(=O)c2coc3ccc(OCC(=O)O)cc23)c1"
readout_value = 91.8

[[record]]
compound = "O=C1Nc2ccccc2/C1=C/c1c[nH]cn1"
readout_value = 92.8

[[record]]
compound = "CCCC/C=C/c1cnc(N)c(N[C@@H](C)c2ccccc2)n1"
readout_value = 109

[[record]]
compound = "CC(=O)NCCc1nc2cc(NC(=O)c3ccc([N+](=O)[O-])cc3)ccc2n1C"
readout_value = 117

[[record]]
compound = "O=C(O)C[C@H](CNC(=O)COc1ccc2ccc(=O)oc2c1)c1ccc(Cl)cc1"
readout_value = 113

[[record]]
compound = "NC(=O)CN1CCC(Oc2nccnc2OCc2ccc(Cl)c(Cl)c2)CC1"
readout_value = 104

[[record]]
compound = "CCCCNc1cc(N(C)Cc2cnn(C)c2)nc(N)n1"
readout_value = 62.6

[[record]]
compound = "O=S(=O)(c1ccc2ccccc2c1)c1cnns1"
readout_value = 97.7

[[record]]
compound = "COc1ccc2oc(C(=O)NC(C)c3cn(C)nc3C)cc2c1 (centres unmarked)"
readout_value = 90.9

[[record]]
compound = "CCOC(=O)c1sc2nccc(Nc3ccccc3)c2c1N"
readout_value = 90.8

[[record]]
compound = "Cc1nnc(SCc2cc(=O)[nH]c(N3CCN(c4ccccc4F)CC3)n2)s1"
readout_value = 97.8

[[record]]
compound = "O=C(c1ccco1)N1CCN(C(=O)c2ccco2)CC1"
readout_value = 86.4

[[record]]
compound = "O=C(Nc1cccc2ncccc12)c1cccc(Oc2ccccc2)c1"
readout_value = 91.7

[[record]]
compound = "O=C(O)c1ccc(NC(=O)c2cnccn2)cc1"
readout_value = 94

